Method notes: ATG_MRE_CIS: Attagene CIS-FACTORIAL HepG2 Assay for human Metal Responsive Element (MRE) (AID 2282954)
Assay setup: HepG2 MRE cis-reporter transcription, Attagene multiplex; actives raise or lower the signal
The source made the active and inactive calls. The calls were made as follows: active = hit-call score of the fitted dose curve at least 0.9, where 1 is the maximum; inactive = score below 0.9.
Pick from active, inactive when you respond.

Example results:
O=C(O)c1cccc(Oc2ccccc2)c1 inactive
COC(=O)CC(=O)OC inactive

Hey, what did the test say about `CC(C)=CCCC(C)=CC=O` ? active

----------
Study target: Estrogen receptor (Homo sapiens)
Method notes: OT_ERa_GFPERaERE_0480: Odyssey Thera (OT) 8-hour HeLa Transcription Induction Assay for Estrogen Receptor (AID 2283381)
Protocol: OT_ERa_GFPERaERE_0480 is a cell-based, single-readout assay that uses HeLa, a human cervix cell line, with measurements taken at 8 hours after chemical dosing in a 384-well plate.OT_ERa_GFPERaERE_0480 is one of one assay component(s) measured or calculated from the OT_ERa_GFPERaERE_0480 assay. […] This assay endpoint, OT_ERa_EREGFP_0480, was analyzed in the positive analysis fitting direction relative to DMSO as the negative control and baseline of activity. […]
Active and inactive are the calls of the source. The calls were made as follows: active = hit-call score of the fitted dose curve at least 0.9, where 1 is the maximum; inactive = score below 0.9.
Quantity kind: outcome

Examples with answers:
Compound	outcome
COC(=O)c1ccccc1O	inactive
Nc1ccc(Nc2ccccc2)cc1	inactive
COc1ccc2sc(C(=O)Nc3nnn[nH]3)c(OC(C)C)c2c1	inactive
CC(C)=CCCC(C)=CC=O	inactive
CCCCC(CC)COC(=O)CCCCCCCCC(=O)OCC(CC)CCCC (stereo unspecified)	inactive

Now look at this one.
Consider the compound `CC[C@H]1CC[C@H](NCc2cc3c(cc2OC)[C@H]2C[C@H]2C(=O)N3C)[C@H](c2ccccc2)N1` and give its measured outcome. inactive

----------
Method notes: ATG_AP_1_CIS: Attagene CIS-FACTORIAL HepG2 Assay for human Activator Protein 1 (AP-1) (AID 2282931)
Assay setup: HepG2 Attagene cis-factorial AP-1 reporter mRNA; actives raise or lower the signal
Active and inactive are the calls of the source. The calls were made as follows: active = hit-call score of the fitted dose curve at least 0.9, where 1 is the maximum; inactive = score below 0.9.
Please state which outcome applies, choosing from Yes = active, No = inactive

Call for entry O=c1[nH]c2ccc(S(=O)CCN3CCC(Cc4ccc(F)cc4)CC3)cc2o1 (stereo not drawn) : No

Give the logged outcome of this assay for the following compound: `COCCOCCOCCOC` No

I'd appreciate the recorded outcome for `Oc1ccc2c(c1)-c1ccccc1C2` from this test. No

I would be grateful if you could indicate the recorded call for `CN(C)c1ccc(Cc2ccc(N(C)C)cc2)cc1` . Yes

How did this test come out for `CCOC(=O)CC(CC(=O)OCC)(OC(C)=O)C(=O)OCC` ? No

Returns: the outcome recorded for CC/C(=C\C(=N/O)C(N)=O)C(C)[N+](=O)[O-] (stereo not drawn) in this assay. No

Please share the test call associated with `COC(=O)c1c(Cl)c(Cl)c(C(=O)OC)c(Cl)c1Cl` . No

Returns: the outcome recorded for `CCCN(C1CCN(C(=O)C2CCNCC2)CC1)[C@@H]1CCc2ccc(OC)cc2C1` in this assay. No

----------
Read-out: Macrophage colony-stimulating factor (MCSF), CSF1 (gene 1435)
Method notes: BSK_CASM3C_MCSF: BioMAP Diversity Plus: CASM3C Assay for Macrophage colony-stimulating factor (MCSF) Biomarker Activity (AID 2283044);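 also: M-CSF protein amount quantified by ELISA after 24 h exposure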
Assay setup: primary human coronary artery smooth muscle cells; actives raise or lower the signal
The source made the active and inactive calls. How the source made its calls: active means hit-call score of the fitted dose curve at least 0.9, where 1 is the maximum; inactive means score below 0.9.
Mark one answer only. Choices: active, inactive

Molecule	Assigned class
O=C1CCCCCN1	inactive
O=P(OC(CCl)CCl)(OC(CCl)CCl)OC(CCl)CCl	inactive
O=C(O)CC(O)C(=O)O (configuration not stated)	inactive
C1=CCCC=CCCC=CCC1	inactive
CCCCCCCCCCCCc1ccccc1	inactive
CC(C)c1cccc(C(C)C)c1N1C(=O)c2ccc(O)cc2C1=O	active

Tell me the assay call for `CCc1cc(SCc2sc(-c3ccc(C(F)(F)F)cc3)nc2CN2CCN(c3ccc(OC)cc3)CC2)ccc1OCC(=O)O` please. active

Tell me the recorded outcome of this test for `COC(=O)c1ccccc1O` . inactive

Recorded call for `Cc1[nH]cnc1C[C@H]1CCc2c(C)c3ccccc3n2C1=O` ? inactive

Recorded call for `CC1=CC(=O)CC(C)(C)C1` ? inactive

Check the results log: what was the call for `O=C(O)CCN(C1(C(=O)NO)CCCC1)S(=O)(=O)c1ccc(Oc2ccc(F)cc2)cc1` ? inactive

Dear all, I need the recorded test outcome for `Nc1cccc(N)c1` , thank you. inactive

----------
Read-out: E-selectin (Homo sapiens)
Method notes: BSK_LPS_Eselectin: BioMAP Diversity Plus: LPS Assay for Eselectin Biomarker Activity (AID 2283077)
Assay setup: primary human HUVEC with PBMC; actives raise or lower the signal
Active and inactive are the calls of the source. How the source made its calls: active means hit-call score of the fitted dose curve at least 0.9, where 1 is the maximum; inactive means score below 0.9.
A correct response names exactly one class from True for active, False for inactive

CC(C)CCCCCCCOC(=O)CCCCC(=O)OCCCCCCCC(C)C False
O=C(O)c1cccc(Oc2ccccc2)c1 False
C[C@](N)(Cc1ccc(O)c(O)c1)C(=O)O False

In this assay, the call recorded for `O=P(OC(CCl)CCl)(OC(CCl)CCl)OC(CCl)CCl` was what? False

Per the assay record, what outcome was assigned to `C=CCCCCCCCCC(=O)O` ? False

Test call, this compound: `CCc1cc(SCc2sc(-c3ccc(C(F)(F)F)cc3)nc2CN2CCN(c3ccc(OC)cc3)CC2)ccc1OCC(=O)O` True

Give the logged outcome of this assay for the following compound: `Cc1ccc(O)cc1` False

----------
Method notes: ATG_BRE_CIS: Attagene CIS-FACTORIAL HepG2 Assay for human Bone Morphogenetic Protein (BMP) Response Element (BRE) (AID 2282933)
Assay setup: HepG2 BMP response element reporter, Attagene transcription factor profiling; actives raise or lower the signal
The source made the active and inactive calls. The calls were made as follows: active = hit-call score of the fitted dose curve at least 0.9, where 1 is the maximum; inactive = score below 0.9.
Quantity kind: AC50

Reference set, count: 6
Compound	Endpoint value
O=C1OC(=O)C2C3C=CC(C3)C12 (centres undefined)	inactive
O=P(OC(CCl)CCl)(OC(CCl)CCl)OC(CCl)CCl	70.4 µM (active)
O=C(O)c1cc(N=Nc2ccc(S(=O)(=O)Nc3ccccn3)cc2)ccc1O	inactive
CC(C)=CCC/C(C)=C\CO	inactive
Clc1nc(Cl)c(Cl)c(Cl)c1Cl	inactive
CCOC(=O)COc1ccc2c(c1)CC(NCC(O)c1cccc(Cl)c1)CC2 (centres undefined)	inactive

Query (compound): `CCCN(C1CCN(C(=O)C2CCNCC2)CC1)[C@@H]1CCc2ccc(OC)cc2C1` ; field requested: AC50 53.3 µM (active)

Which measured AC50 value corresponds to O=c1[nH]c2ccc(S(=O)CCN3CCC(Cc4ccc(F)cc4)CC3)cc2o1 (centres undefined) ? 100 µM (active)

Please look up its AC50: `CC(C)(O)c1coc(S(=O)(=O)NC(=O)Nc2c3c(cc4c2CCC4)CCC3)c1` inactive

For `CC(=O)OC[C@H]1O[C@@](COC(C)=O)(O[C@H]2O[C@H](COC(C)=O)[C@@H](OC(C)=O)[C@H](OC(C)=O)[C@H]2OC(C)=O)[C@@H](OC(C)=O)[C@@H]1OC(C)=O` , what is its reported AC50? inactive

Report AC50 for `COC(=O)c1ccccc1O` please. inactive

----------
Read-out: Monocyte Chemoattractant Protein-1 (MCP1), CCL2 (gene 6347)
Method notes: BSK_LPS_MCP1: BioMAP Diversity Plus: LPS Assay for Monocyte Chemoattractant Protein-1 (MCP1) Biomarker Activity (AID 2283081)
Assay setup: primary human HUVEC with PBMC; actives raise or lower the signal
Calls of active or inactive are those of the source. How the source made its calls: active means hit-call score of the fitted dose curve at least 0.9, where 1 is the maximum; inactive means score below 0.9.
Classes to choose from: true for active, false for inactive

Record request — test call for O=C1OC(=O)C2C3C=CC(C3)C12 (configuration not stated) false

Identify the outcome logged in this assay for the compound shown: `Nc1cccc(N)c1` false

Status in this test for `Cn1c(=O)c2c(ncn2C)n(C)c1=O` ? false

Kindly provide the recorded test outcome for the following compound: `CCOc1cccc(-n2cc(C(=O)N3CCN(c4cc(C(=O)O)c5ccccc5c4)CC3)nc2-c2ccc(C)cc2)c1` true

Field: outcome | Entry: CCCCC(CC)COC(=O)CCCCCCCCC(=O)OCC(CC)CCCC (configuration not stated) false

Outcome? CC/C(=C\C(=N/O)C(N)=O)C(C)[N+](=O)[O-] (configuration not stated) false

Record lookup: outcome of this test for CC(C)=CCCC(C)CCO (configuration not stated) ? false

Name the outcome recorded for `CCn1nc(Cc2ccccc2)cc1C1CCN(C[C@H]2C[C@H](N(C)[C@@H](C(=O)O)C(C)C)C[C@@H]2c2cccc(F)c2)CC1` in the assay. false

----------
Read-out: ABC Transporter (ABCC3), ABCC3 (gene 8714)
Method notes: LTEA_HepaRG_ABCC3: Life Technologies and Expression Analysis (LTEA) Assay for ABC Transporter (ABCC3) using HepaRG (AID 2283462)
Assay setup: mRNA level, 48 h; actives raise or lower the signal
Calls of active or inactive are those of the source. Rule for the calls: active = hit-call score of the fitted dose curve at least 0.9, where 1 is the maximum; inactive = score below 0.9.
Parameter call: string, one of t (active), f (inactive)

Known results for molecules:
Molecule	Assigned class
CCCN(C1CCN(C(=O)C2CCNCC2)CC1)[C@@H]1CCc2ccc(OC)cc2C1	t
Cc1ccc(S(=O)(=O)O)cc1C	f
Fc1ccccc1[C@@H](F)COC1CCC(Nc2ncnc3[nH]ncc23)CC1 (stereo partly drawn)	f
COc1ccc(/C=C/S(=O)(=O)NC(=O)c2ccc(C)cc2Cl)cc1	f
CCCCCCCCCCCCc1ccccc1	f

Can you look up the reported call for `CC1=CC(=O)CC(C)(C)C1` for me? f
